Provenance of the data: paper PMC8632988

Target: LRRK2 (Homo sapiens, UniProt Q5S007)
Sequence (Q5S007 whole entry): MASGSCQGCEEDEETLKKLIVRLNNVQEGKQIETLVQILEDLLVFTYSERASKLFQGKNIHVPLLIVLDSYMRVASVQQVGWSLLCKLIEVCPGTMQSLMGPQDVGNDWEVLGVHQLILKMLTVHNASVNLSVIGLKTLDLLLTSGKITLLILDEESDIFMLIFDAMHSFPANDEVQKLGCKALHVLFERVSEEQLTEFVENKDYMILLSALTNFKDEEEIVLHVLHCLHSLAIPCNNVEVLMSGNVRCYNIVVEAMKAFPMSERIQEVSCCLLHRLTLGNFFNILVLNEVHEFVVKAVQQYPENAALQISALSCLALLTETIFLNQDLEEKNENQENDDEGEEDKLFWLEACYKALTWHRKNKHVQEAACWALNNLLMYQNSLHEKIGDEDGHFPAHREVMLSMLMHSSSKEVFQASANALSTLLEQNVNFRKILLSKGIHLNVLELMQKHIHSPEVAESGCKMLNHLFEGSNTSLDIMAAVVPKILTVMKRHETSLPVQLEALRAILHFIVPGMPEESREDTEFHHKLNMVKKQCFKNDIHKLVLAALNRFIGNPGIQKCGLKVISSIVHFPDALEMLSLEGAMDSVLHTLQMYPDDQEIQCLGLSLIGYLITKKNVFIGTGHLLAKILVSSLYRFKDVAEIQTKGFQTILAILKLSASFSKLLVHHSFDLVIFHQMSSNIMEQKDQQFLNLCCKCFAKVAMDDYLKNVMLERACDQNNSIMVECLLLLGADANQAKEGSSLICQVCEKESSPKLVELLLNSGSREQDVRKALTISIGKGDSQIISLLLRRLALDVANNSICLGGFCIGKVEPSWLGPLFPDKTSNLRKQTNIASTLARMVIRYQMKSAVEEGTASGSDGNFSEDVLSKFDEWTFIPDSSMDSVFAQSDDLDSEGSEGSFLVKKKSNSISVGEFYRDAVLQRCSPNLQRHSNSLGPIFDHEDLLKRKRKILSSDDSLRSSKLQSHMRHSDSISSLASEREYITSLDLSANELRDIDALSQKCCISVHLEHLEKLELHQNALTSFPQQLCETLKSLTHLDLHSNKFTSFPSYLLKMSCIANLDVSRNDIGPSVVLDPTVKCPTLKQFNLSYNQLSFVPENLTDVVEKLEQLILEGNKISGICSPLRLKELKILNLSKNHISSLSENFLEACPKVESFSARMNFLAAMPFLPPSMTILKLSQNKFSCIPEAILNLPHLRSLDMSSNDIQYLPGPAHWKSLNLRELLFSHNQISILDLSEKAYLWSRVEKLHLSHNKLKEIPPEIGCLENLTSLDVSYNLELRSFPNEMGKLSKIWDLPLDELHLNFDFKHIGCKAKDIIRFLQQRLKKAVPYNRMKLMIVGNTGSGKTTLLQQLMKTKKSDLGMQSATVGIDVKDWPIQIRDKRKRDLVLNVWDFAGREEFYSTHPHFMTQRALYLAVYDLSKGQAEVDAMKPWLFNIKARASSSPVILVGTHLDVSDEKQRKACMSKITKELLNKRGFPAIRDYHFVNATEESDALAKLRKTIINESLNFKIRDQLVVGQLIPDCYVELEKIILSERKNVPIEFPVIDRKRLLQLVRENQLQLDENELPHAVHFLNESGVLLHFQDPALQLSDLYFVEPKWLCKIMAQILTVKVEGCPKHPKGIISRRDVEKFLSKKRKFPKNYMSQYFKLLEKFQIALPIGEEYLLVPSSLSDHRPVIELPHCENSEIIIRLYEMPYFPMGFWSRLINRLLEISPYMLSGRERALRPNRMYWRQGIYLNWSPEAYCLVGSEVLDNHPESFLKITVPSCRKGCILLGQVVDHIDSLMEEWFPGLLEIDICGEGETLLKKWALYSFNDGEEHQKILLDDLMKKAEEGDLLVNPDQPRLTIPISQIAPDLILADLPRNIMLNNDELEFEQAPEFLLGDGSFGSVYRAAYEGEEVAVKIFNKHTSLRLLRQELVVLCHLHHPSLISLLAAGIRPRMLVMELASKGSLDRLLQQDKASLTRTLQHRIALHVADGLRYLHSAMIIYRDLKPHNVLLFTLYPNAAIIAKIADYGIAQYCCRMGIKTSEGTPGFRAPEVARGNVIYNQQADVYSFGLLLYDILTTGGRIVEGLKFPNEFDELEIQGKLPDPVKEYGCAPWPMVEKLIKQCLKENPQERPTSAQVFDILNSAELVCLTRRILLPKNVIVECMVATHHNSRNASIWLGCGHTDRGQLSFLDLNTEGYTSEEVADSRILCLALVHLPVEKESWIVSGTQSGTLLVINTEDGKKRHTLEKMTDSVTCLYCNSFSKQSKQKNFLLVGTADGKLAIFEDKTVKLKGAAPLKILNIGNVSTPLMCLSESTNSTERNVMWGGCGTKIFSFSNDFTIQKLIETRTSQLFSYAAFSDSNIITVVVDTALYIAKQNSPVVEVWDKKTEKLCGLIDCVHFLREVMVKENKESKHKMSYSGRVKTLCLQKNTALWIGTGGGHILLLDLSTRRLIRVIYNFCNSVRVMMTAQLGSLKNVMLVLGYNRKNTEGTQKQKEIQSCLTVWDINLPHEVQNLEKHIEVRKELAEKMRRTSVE

Molecule	IC50 / nM
COc1cc(Nc2ncnc(Nc3cc4c(cn3)NC(=O)C(C)(C)O4)n2)cc(OC)c1OC [MT-SYK-03]	206

====

Assay: Pharmacokinetics after single oral administration to rats
Format: in vivo, rat
Conditions: male, Wistar, rat, plasma, po, 200 mg/kg, Table S8, 200 mg/kg PO, male Wistar rats, plasma, mean of Rat#13-18; read-out: Tmax, Mean

Smi	Tmax [h]
COc1cc(Nc2ncnc(Nc3cc4c(cn3)NC(=O)C(C)(C)O4)n2)cc(OC)c1OC	1.33

====

Assay: Pharmacokinetics after single oral administration to rats
Type: in vivo, rat
Settings: male, Wistar, rat, plasma, po, 30 mg/kg, rats, single oral 30 mg/kg; read-out: Tmax
Experimental: Experiments were performed at ChemPartner, Shanghai, China and approved by Institutional Ethics Committee (IEC) of ChemPartner. Male Wistar 10–12 weeks old rats with body weights of 185–220 g and male New Zealand rabbits with body weights of 2.0–2.3 kg were purchased from Shanghai SLAC Laboratory Animal Co., Ltd. MT-SYK-03 was administered to the three groups of rats (six rats per group) via oral gavage at 10 mL/kg concentration, and in rabbits 5 mL/kg concentration. […]

Compound	Tmax
COc1cc(Nc2ncnc(Nc3cc4c(cn3)NC(=O)C(C)(C)O4)n2)cc(OC)c1OC [MT-SYK-03]	1.5 h

====

Assay: Tissue distribution after single oral administration in rats
Type: in vivo, rat
Conditions: male, Wistar, rat, muscle, po, 100 mg/kg, muscle, 100 mg/kg PO, male Wistar rats, 2 h, individual animals; read-out: Muscle concentration
Endpoint: concentration at 2 h (µg/mL)

Smi	Units Text	Measured Number
COc1cc(Nc2ncnc(Nc3cc4c(cn3)NC(=O)C(C)(C)O4)n2)cc(OC)c1OC	µg/mL	0.456

====

Experiment: Pharmacokinetics after single oral administration to rats
Type: in vivo, rat
Settings: male, Wistar, rat, plasma, oral, 200 mg/kg, Table S8, 200 mg/kg PO, male Wistar rats, 2 h, mean of Rat#13-18; read-out: Plasma concentration, Mean
Experimental: Experiments were performed at ChemPartner, Shanghai, China and approved by Institutional Ethics Committee (IEC) of ChemPartner. Male Wistar 10–12 weeks old rats with body weights of 185–220 g and male New Zealand rabbits with body weights of 2.0–2.3 kg were purchased from Shanghai SLAC Laboratory Animal Co., Ltd. MT-SYK-03 was administered to the three groups of rats (six rats per group) via oral gavage at 10 mL/kg concentration, and in rabbits 5 mL/kg concentration. […]

Compound	concentration at 2 h [ng/mL]
COc1cc(Nc2ncnc(Nc3cc4c(cn3)NC(=O)C(C)(C)O4)n2)cc(OC)c1OC [MT-SYK-03]	1040

====

Test: Pharmacokinetics after single oral administration to rats
Assay type: in vivo, rat
Conditions: male, Wistar, rat, plasma, oral, 200 mg/kg, Table S8, 200 mg/kg PO, male Wistar rats, 24 h, mean of Rat#13-18
Endpoint: concentration at 24 h (ng/mL)

Compound	Units Text	Measured Number
COc1cc(Nc2ncnc(Nc3cc4c(cn3)NC(=O)C(C)(C)O4)n2)cc(OC)c1OC [MT-SYK-03]	ng/mL	4.99

====

Assay: Tissue distribution after single oral administration in rats
Assay type: in vivo, rat
Settings: male, Wistar, rat, prostate, po, 100 mg/kg, prostate, 100 mg/kg PO, male Wistar rats, 2 h, mean; read-out: Prostate concentration, Mean

Molecule	Units Text	concentration at 2 h
COc1cc(Nc2ncnc(Nc3cc4c(cn3)NC(=O)C(C)(C)O4)n2)cc(OC)c1OC [MT-SYK-03]	ng/mL	1260

====

Assay: Tissue distribution after single oral administration in rats
Assay type: in vivo, rat
Conditions: male, Wistar, rat, liver, po, 100 mg/kg, liver, 100 mg/kg PO, male Wistar rats, 24 h, mean; read-out: Liver concentration, Mean

Smi	concentration at 24 h
COc1cc(Nc2ncnc(Nc3cc4c(cn3)NC(=O)C(C)(C)O4)n2)cc(OC)c1OC	45.3 ng/mL

====

Experiment: Pharmacokinetics after single oral administration to rats
Type: in vivo, rat
Settings: male, Wistar, rat, plasma, po, 100 mg/kg, Table S6, 100 mg/kg PO, male Wistar rats, plasma, mean of Rat#1-6; read-out: Cmax, Mean

Molecule	Units Text	Cmax
COc1cc(Nc2ncnc(Nc3cc4c(cn3)NC(=O)C(C)(C)O4)n2)cc(OC)c1OC [MT-SYK-03]	ng/mL	416

====

Test: Tissue distribution after single oral administration in rats
Format: in vivo, rat
Conditions: rat; spleen, 100 mg/kg PO, male Wistar rats, Estimated Value
Experimental: Experiments were performed at ChemPartner, Shanghai, China and approved by Institutional Ethics Committee (IEC) of ChemPartner. Male Wistar 10–12 weeks old rats with body weights of 185–220 g and male New Zealand rabbits with body weights of 2.0–2.3 kg were purchased from Shanghai SLAC Laboratory Animal Co., Ltd. MT-SYK-03 was administered to the three groups of rats (six rats per group) via oral gavage at 10 mL/kg concentration, and in rabbits 5 mL/kg concentration. […]

Molecule	Units Text	Tmax
COc1cc(Nc2ncnc(Nc3cc4c(cn3)NC(=O)C(C)(C)O4)n2)cc(OC)c1OC [MT-SYK-03]	h	2

====

Assay: Pharmacokinetics after single oral administration to rats
Assay type: in vivo, rat
Details: male, Wistar, rat, plasma, po, 200 mg/kg, Table S8, 200 mg/kg PO, male Wistar rats, plasma, mean of Rat#13-18; read-out: AUClast, Mean

Smi	AUC(0-t), ng·h/mL
COc1cc(Nc2ncnc(Nc3cc4c(cn3)NC(=O)C(C)(C)O4)n2)cc(OC)c1OC	7270

====

Test: Pharmacokinetics after single oral administration to rats
Assay type: in vivo, rat
Details: male, Wistar, rat, plasma, po, 100 mg/kg, Table S7, 100 mg/kg PO, male Wistar rats, plasma, mean of Rat#7-12; read-out: Tmax, Mean
Endpoint: Tmax (h)

Smi	Measured Number
COc1cc(Nc2ncnc(Nc3cc4c(cn3)NC(=O)C(C)(C)O4)n2)cc(OC)c1OC	1

====

Experiment: Tissue distribution after single oral administration in rats
Format: in vivo, rat
Conditions: rat; bone, 100 mg/kg PO, male Wistar rats, Estimated Value; read-out: AUC24/AUC24 (plasma)

Compound	Kp
COc1cc(Nc2ncnc(Nc3cc4c(cn3)NC(=O)C(C)(C)O4)n2)cc(OC)c1OC [MT-SYK-03]	2.5

====

Target: CSK (Homo sapiens)
Sequence (P41240 whole entry): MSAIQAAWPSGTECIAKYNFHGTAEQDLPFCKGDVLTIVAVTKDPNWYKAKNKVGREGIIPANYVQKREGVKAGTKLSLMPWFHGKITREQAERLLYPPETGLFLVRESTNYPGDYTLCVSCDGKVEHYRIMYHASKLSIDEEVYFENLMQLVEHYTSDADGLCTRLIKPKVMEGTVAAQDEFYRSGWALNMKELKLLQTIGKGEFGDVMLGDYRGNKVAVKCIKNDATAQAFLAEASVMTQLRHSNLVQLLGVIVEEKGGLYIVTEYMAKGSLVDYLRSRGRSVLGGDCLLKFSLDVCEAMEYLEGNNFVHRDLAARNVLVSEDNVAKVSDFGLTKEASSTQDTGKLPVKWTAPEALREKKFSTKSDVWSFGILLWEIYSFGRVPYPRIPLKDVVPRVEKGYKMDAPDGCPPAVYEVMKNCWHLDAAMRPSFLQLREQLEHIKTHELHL
Endpoint: IC50 (nM)

Smi	Units Text	Measured Number
COc1cc(Nc2ncnc(Nc3cc4c(cn3)NC(=O)C(C)(C)O4)n2)cc(OC)c1OC	nM	238

====

Test: Pharmacokinetics after single oral administration to rats
Format: in vivo, rat
Settings: male, Wistar, rat, plasma, po, 100 mg/kg, Table S7, 100 mg/kg PO, male Wistar rats, plasma, mean of Rat#7-12; read-out: Terminal t1/2, Mean (converted)

Compound	half-life
COc1cc(Nc2ncnc(Nc3cc4c(cn3)NC(=O)C(C)(C)O4)n2)cc(OC)c1OC [MT-SYK-03]	4.06 h
